TESTED_TARGET: UniProtKB Q01726
Sequence (Q01726 whole entry): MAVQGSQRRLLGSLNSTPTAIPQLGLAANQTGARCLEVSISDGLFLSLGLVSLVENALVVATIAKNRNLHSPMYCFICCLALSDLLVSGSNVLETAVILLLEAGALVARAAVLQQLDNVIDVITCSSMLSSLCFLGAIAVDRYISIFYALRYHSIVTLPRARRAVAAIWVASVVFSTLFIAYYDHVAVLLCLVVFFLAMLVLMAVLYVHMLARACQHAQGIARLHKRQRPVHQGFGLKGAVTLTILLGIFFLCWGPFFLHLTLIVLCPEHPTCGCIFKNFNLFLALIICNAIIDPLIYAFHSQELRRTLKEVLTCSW
ASSAY_NOTES: Displacement of [125I]NDP-alpha-MSH from human MC1R expressed in HEK293 cells by competitive binding assay
Items are presented alongside their recorded IC50.

MOLECULE_SMILES	IC50
CCCC[C@H](NC(C)=O)C(=O)N[C@@H]1C(=O)N[C@@H](Cc2c[nH]cn2)C(=O)N[C@H](Cc2ccccc2)C(=O)N[C@@H](CCCNC(=N)N)C(=O)N[C@@H](Cc2c[nH]c3ccccc23)C(=O)N[C@H](C(N)=O)CSCc2cccc(c2)CSC1(C)C	0.07 µM
CCCC[C@H](NC(C)=O)C(=O)N[C@@H]1C(=O)N[C@@H](Cc2c[nH]cn2)C(=O)N[C@H](Cc2ccccc2)C(=O)N[C@@H](CCCNC(=N)N)C(=O)N[C@@H](Cc2c[nH]c3ccccc23)C(=O)N[C@H](C(N)=O)C(C)(C)SCc2cccc(c2)CSC1(C)C	0.45 µM
CCCC[C@H](NC(C)=O)C(=O)N[C@H]1CSCc2ccccc2CSC[C@@H](C(N)=O)NC(=O)[C@H](Cc2c[nH]c3ccccc23)NC(=O)[C@H](CCCNC(=N)N)NC(=O)[C@@H](Cc2ccccc2)NC(=O)[C@H](Cc2c[nH]cn2)NC1=O	0.275 µM
CCCC[C@H](NC(C)=O)C(=O)N[C@H]1CSCc2ccc(cc2)CSC[C@@H](C(N)=O)NC(=O)[C@H](Cc2c[nH]c3ccccc23)NC(=O)[C@H](CCCNC(=N)N)NC(=O)[C@@H](Cc2ccccc2)NC(=O)[C@H](Cc2c[nH]cn2)NC1=O	0.0073 µM
CCCC[C@H](NC(C)=O)C(=O)N[C@H]1CSCc2cccc(c2)CSC[C@@H](C(N)=O)NC(=O)[C@H](Cc2c[nH]c3ccccc23)NC(=O)[C@H](CCCNC(=N)N)NC(=O)[C@@H](Cc2ccccc2)NC(=O)[C@H](Cc2c[nH]cn2)NC1=O	0.0035 µM
CCCC[C@H](NC(C)=O)C(=O)N[C@@H]1C(=O)N[C@@H](Cc2c[nH]cn2)C(=O)N[C@H](Cc2ccccc2)C(=O)N[C@@H](CCCNC(=N)N)C(=O)N[C@@H](Cc2c[nH]c3ccccc23)C(=O)N[C@H](C(N)=O)C(C)(C)SCc2ccc(cc2)CSC1(C)C	> 1 µM
CCCC[C@H](NC(C)=O)C(=O)N[C@H]1CSCc2cccc(c2)CSC(C)(C)[C@@H](C(N)=O)NC(=O)[C@H](Cc2c[nH]c3ccccc23)NC(=O)[C@H](CCCNC(=N)N)NC(=O)[C@@H](Cc2ccccc2)NC(=O)[C@H](Cc2c[nH]cn2)NC1=O	0.009 µM
CCCC[C@H](NC(C)=O)C(=O)N[C@@H]1C(=O)N[C@@H](Cc2c[nH]cn2)C(=O)N[C@H](Cc2ccccc2)C(=O)N[C@@H](CCCNC(=N)N)C(=O)N[C@@H](Cc2c[nH]c3ccccc23)C(=O)N[C@H](C(N)=O)C(C)(C)SCc2ccccc2CSC1(C)C	0.553 µM
CCCC[C@H](NC(C)=O)C(=O)N[C@H]1CSCc2ccc(cc2)CSC(C)(C)[C@@H](C(N)=O)NC(=O)[C@H](Cc2c[nH]c3ccccc23)NC(=O)[C@H](CCCNC(=N)N)NC(=O)[C@@H](Cc2ccccc2)NC(=O)[C@H](Cc2c[nH]cn2)NC1=O	0.019 µM
CCCC[C@H](NC(C)=O)C(=O)N[C@@H]1C(=O)N[C@@H](Cc2c[nH]cn2)C(=O)N[C@H](Cc2ccccc2)C(=O)N[C@@H](CCCNC(=N)N)C(=O)N[C@@H](Cc2c[nH]c3ccccc23)C(=O)N[C@H](C(N)=O)CSCc2ccccc2CSC1(C)C	0.15 µM
CCCC[C@H](NC(C)=O)C(=O)N[C@@H]1C(=O)N[C@@H](Cc2c[nH]cn2)C(=O)N[C@H](Cc2ccccc2)C(=O)N[C@@H](CCCNC(=N)N)C(=O)N[C@@H](Cc2c[nH]c3ccccc23)C(=O)N[C@H](C(N)=O)CSCc2ccc(cc2)CSC1(C)C	0.227 µM
CCCC[C@H](NC(C)=O)C(=O)N[C@H]1CSCc2ccccc2CSC(C)(C)[C@@H](C(N)=O)NC(=O)[C@H](Cc2c[nH]c3ccccc23)NC(=O)[C@H](CCCNC(=N)N)NC(=O)[C@@H](Cc2ccccc2)NC(=O)[C@H](Cc2c[nH]cn2)NC1=O	0.044 µM
